system: human neutrophil elastase (NE) (Homo sapiens, UniProt P08246)
Sequence (P08246 30-267): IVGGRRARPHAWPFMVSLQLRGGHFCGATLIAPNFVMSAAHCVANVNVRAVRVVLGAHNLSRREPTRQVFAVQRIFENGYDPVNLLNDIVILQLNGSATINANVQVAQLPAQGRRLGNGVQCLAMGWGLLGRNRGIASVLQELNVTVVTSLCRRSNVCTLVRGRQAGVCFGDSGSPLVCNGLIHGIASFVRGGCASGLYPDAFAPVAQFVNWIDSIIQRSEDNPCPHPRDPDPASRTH
run description: Absorbance-based protease activity assay, human NE
pIC50: −log10 of the molar value.
recorded endpoint: pIC50

# compound, recorded endpoint, result value
rows = [
    ("CCC[C@H](NC(=O)[C@@H]1[C@H]2CCC[C@H]2CN1C(=O)[C@@H](NC(=O)[C@@H](NC(=O)c1cnccn1)C1CCCCC1)C(C)(C)C)C(=O)C(=O)NC1CC1 [telaprevir]", "pIC50", 5.44),
    ("C[C@@H](O)[C@H]1C(=O)N2C(C(=O)O)=C(SC3CN(C4=NCCS4)C3)[C@H](C)[C@H]12 [tebipenem]", "pIC50", 4.47),
]

====

system: porcine pancreatic elastase (pPE) (Sus scrofa, UniProt P00772)
Sequence (P00772 27-266): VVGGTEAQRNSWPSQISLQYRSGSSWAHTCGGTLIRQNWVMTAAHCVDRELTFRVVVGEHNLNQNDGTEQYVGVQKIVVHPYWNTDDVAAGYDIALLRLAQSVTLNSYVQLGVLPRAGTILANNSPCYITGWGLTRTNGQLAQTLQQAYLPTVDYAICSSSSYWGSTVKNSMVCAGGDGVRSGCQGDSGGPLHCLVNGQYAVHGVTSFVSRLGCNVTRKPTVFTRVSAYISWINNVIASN
run description: Absorbance-based protease activity assay, pPE
Format: biochemical
pIC50: −log10 of the molar value.
Reported pIC50 is given for each of the following compounds.

# mol, pIC50
records = [
    ("C[C@@H](O)[C@H]1C(=O)N2C(C(=O)O)=C(SC3CN(C4=NCCS4)C3)[C@H](C)[C@H]12", 3.97),
    ("CC(C)(C)C(=O)Oc1ccc(S(=O)(=O)Nc2ccccc2C(=O)NCC(=O)O)cc1", 5.70),
]
